target system: aldehyde reductase (ALR1) (Bos taurus, UniProt Q3ZCJ2)
Construct: ALR2 was extracted from the eyes while ALR1 was obtained from the kidneys; from tissue; host or cells: bovine kidneys
Sequence (Q3ZCJ2 whole entry): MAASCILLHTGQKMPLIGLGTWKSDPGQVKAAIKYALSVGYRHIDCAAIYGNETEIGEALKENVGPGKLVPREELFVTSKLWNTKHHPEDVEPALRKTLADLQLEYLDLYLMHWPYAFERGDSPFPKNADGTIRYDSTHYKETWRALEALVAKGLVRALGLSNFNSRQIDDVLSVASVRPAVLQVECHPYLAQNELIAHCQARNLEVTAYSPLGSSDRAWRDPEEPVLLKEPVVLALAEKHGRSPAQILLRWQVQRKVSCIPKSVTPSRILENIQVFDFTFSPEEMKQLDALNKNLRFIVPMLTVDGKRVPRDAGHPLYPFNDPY
procedure summary: Enzyme inhibition assay for ALR1 (aldehyde reductase), NADPH absorbance at 340 nm
Type: biochemical, bovine
condition summary: test compounds tested at 100 µM; less than 50% so no IC50; read-out: % Inhibition ALR1
Label label 1 when inhibition at 100 µM is at or above 40%; otherwise label label 0.

[[record]]
compound = "O=c1oc2ccccc2cc1COc1ccccc1C=NNc1cccc([N+](=O)[O-])c1 [Compound 18]"
cat = "label 0"

[[record]]
compound = "O=c1oc2ccccc2cc1COc1ccccc1C=NNc1ccc(F)cc1 [Compound 6]"
cat = "label 1"

[[record]]
compound = "Cc1ccc(NN=Cc2ccccc2OCc2cc3ccccc3oc2=O)cc1 [Compound 13]"
cat = "label 0"

[[record]]
compound = "O=c1oc2ccccc2cc1COc1ccccc1C=NNc1ccccc1 [Compound 5]"
cat = "label 1"

[[record]]
compound = "Cc1cccc(NN=Cc2ccccc2OCc2cc3ccccc3oc2=O)c1C [Compound 19]"
cat = "label 0"

[[record]]
compound = "Cc1ccccc1NN=Cc1ccccc1OCc1cc2ccccc2oc1=O [Compound 12]"
cat = "label 0"

[[record]]
compound = "N#Cc1ccc(NN=Cc2ccccc2OCc2cc3ccccc3oc2=O)cc1 [Compound 16]"
cat = "label 1"

[[record]]
compound = "O=c1oc2ccccc2cc1COc1ccccc1C=NNc1ccccc1[N+](=O)[O-] [Compound 17]"
cat = "label 0"


---

Data export: IC50 values recorded with aldose reductase (ALR2) (Bos taurus).
assay metric: IC50 (µM)

[[record]]
molecule = "COc1ccc(NN=Cc2ccccc2OCc2cc3ccccc3oc2=O)cc1 [Compound 15]"
assay_result = 10.2

[[record]]
molecule = "CCc1ccccc1NN=Cc1ccccc1OCc1cc2ccccc2oc1=O [Compound 14]"
assay_result = 6.52

[[record]]
molecule = "Cc1ccc(NN=Cc2ccccc2OCc2cc3ccccc3oc2=O)cc1 [Compound 13]"
assay_result = 4.64

[[record]]
molecule = "O=c1oc2ccccc2cc1COc1ccccc1C=NNc1ccc(Cl)c(Cl)c1 [Compound 21]"
assay_result = 4.07

[[record]]
molecule = "O=c1oc2ccccc2cc1COc1ccccc1C=NNc1ccccc1Cl [Compound 7]"
assay_result = 3.61

[[record]]
molecule = "Cc1cccc(NN=Cc2ccccc2OCc2cc3ccccc3oc2=O)c1C [Compound 19]"
assay_result = 1.61

[[record]]
molecule = "O=c1oc2ccccc2cc1COc1ccccc1C=NNc1ccc(Cl)cc1 [Compound 9]"
assay_result = 2.84


---

target system: aldose reductase (ALR2) (Bos taurus, UniProt P16116)
Construct: ALR2 was extracted from the eyes while ALR1 was obtained from the kidneys; from tissue; host or cells: bovine eyes
procedure summary: Enzyme inhibition assay for ALR2 (aldose reductase), NADPH absorbance at 340 nm
Format: biochemical, bovine
condition summary: test compounds tested at 100 µM; less than 50% so no IC50; read-out: % Inhibition ALR2
assay metric: inhibition at 100 µM (%)

[[record]]
compound_structure = "N#Cc1ccc(NN=Cc2ccccc2OCc2cc3ccccc3oc2=O)cc1"
value_unit = "%"
qualifying_sign = "="
assay_result = 39.2

[[record]]
compound_structure = "O=c1oc2ccccc2cc1COc1ccccc1C=NNc1ccc(Br)cc1"
value_unit = "%"
qualifying_sign = "<"
assay_result = 50

[[record]]
compound_structure = "O=c1oc2ccccc2cc1COc1ccccc1C=NNc1cccc([N+](=O)[O-])c1"
value_unit = "%"
qualifying_sign = "="
assay_result = 42.9

[[record]]
compound_structure = "O=c1oc2ccccc2cc1COc1ccccc1C=NNc1ccccc1[N+](=O)[O-]"
value_unit = "%"
qualifying_sign = "="
assay_result = 45.6

[[record]]
compound_structure = "O=c1oc2ccccc2cc1COc1ccccc1C=NNc1ccccc1Br"
value_unit = "%"
qualifying_sign = "<"
assay_result = 50

